Molecular target: FAD-linked sulfhydryl oxidase ALR (Homo sapiens)
Sequence (P55789 whole entry): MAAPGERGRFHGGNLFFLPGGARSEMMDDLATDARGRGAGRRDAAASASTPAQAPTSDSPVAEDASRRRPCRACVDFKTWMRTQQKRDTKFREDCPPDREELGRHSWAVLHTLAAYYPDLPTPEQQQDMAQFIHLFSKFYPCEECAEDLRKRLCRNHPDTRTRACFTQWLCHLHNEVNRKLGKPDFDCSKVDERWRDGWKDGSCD
Assay: ALR-catalysed DTT oxidation blockers – biochemical, H2O2 detection, luminescence, cherry-pick, dose response (AID 493248)
Calls of active or inactive are those of the source.
Would you mind telling me the reported AC50 of each entry?

Incoming: Recorded AC50 of O=S(=O)(c1ccc2ccccc2c1)N1CCN=C1SCc1cccnc1 , please.
Outgoing: 0.072 µM (active)

Incoming: Please do the same for Sc1nnc(-c2ccc3ccccc3n2)o1 as well.
Outgoing: 0.01 µM (active)

Incoming: // same read-out, input: NC(=O)c1ccc(CSc2nc3ccccc3s2)cc1
Outgoing: 0.73 µM (active)

Incoming: Also check c1ccc(CNc2ccc3c(c2)ncn3C2CCCCC2)nc1
Outgoing: 1.2 µM (active)

Incoming: What do you have for COc1cc(NC(=O)C(c2ccccc2)c2ccccc2)c(C(=O)O)cc1OC ?
Outgoing: 10.2 µM (active)

Incoming: And for O=C(O)CCc1ccc(-c2cccs2)n1NC(=O)c1cccs1 ?
Outgoing: 1.55 µM (active)

Incoming: Follow-up entry: Cc1ccc(/C=N/Nc2ccc(C(=O)O)cc2)o1
Outgoing: 2.79 µM (active)

Incoming: Would you kindly repeat that for Cc1nn(-c2ccccc2)c(C)c1-c1cc(C(=O)N/N=C/c2ccc(O)cc2)[nH]n1 ?
Outgoing: 4.12 µM (active)

Incoming: Please answer likewise for Cc1cc(C(C#N)c2ccccc2F)n2ncnc2n1 (stereo not given)
Outgoing: 34.3 µM (active)

Incoming: What about CC(=O)N1CCN(c2ccc(N)cc2)CC1 ?
Outgoing: 1.06 µM (active)

###

Molecular target: Heat shock protein HSP 90-alpha (Homo sapiens, UniProt P07900)
Assay type: functional, organism-based
Structures can show the parent of a compound that is named as a salt. Activity calls are given as the source filed them.
recorded_endpoint: AC50

Incoming: Requested field: AC50. Item: CCCCN(CCCC)CCC(O)c1cc2c(Cl)cc(Cl)cc2c2cc(C(F)(F)F)ccc12 (configuration not stated) [HALOFANTRINE HYDROCHLORIDE]
Outgoing: 7.27 µM (active)

Incoming: What would you report for CN1C(=O)C(=C(Nc2ccc(F)cc2)c2ccccc2Cl)C(=O)N(C)C1=O ?
Outgoing: 3.17 µM (active)

Incoming: Next: COc1cc2cc(C(=O)N3CC(COS(C)(=O)=O)c4ccc(O)cc43)[nH]c2c(OC)c1OC (configuration not stated)
Outgoing: 0.708 µM (active)

Incoming: Consider next the compound CC(=NNC(=S)N1CCCCCC1)c1ccccn1 in the same way.
Outgoing: 3.49 µM (active)

Incoming: # iterate: N#Cc1c2ccc([N+](=O)[O-])cc2[n+]([O-])n1-c1ccccc1
Outgoing: 2.86 µM (active)

Incoming: Next entry: N=C(Cc1ccc(Cl)c(Cl)c1)NOC(=O)c1cccs1
Outgoing: 3.01 µM (active)

Incoming: Now consider O=C1C(Cl)=C(Oc2ccccc2)C(=O)c2ccccc21 and answer again.
Outgoing: 2.7 µM (active)

###

Molecular target: Heat shock factor protein 1 (Mus musculus)
Sequence (P38532 whole entry): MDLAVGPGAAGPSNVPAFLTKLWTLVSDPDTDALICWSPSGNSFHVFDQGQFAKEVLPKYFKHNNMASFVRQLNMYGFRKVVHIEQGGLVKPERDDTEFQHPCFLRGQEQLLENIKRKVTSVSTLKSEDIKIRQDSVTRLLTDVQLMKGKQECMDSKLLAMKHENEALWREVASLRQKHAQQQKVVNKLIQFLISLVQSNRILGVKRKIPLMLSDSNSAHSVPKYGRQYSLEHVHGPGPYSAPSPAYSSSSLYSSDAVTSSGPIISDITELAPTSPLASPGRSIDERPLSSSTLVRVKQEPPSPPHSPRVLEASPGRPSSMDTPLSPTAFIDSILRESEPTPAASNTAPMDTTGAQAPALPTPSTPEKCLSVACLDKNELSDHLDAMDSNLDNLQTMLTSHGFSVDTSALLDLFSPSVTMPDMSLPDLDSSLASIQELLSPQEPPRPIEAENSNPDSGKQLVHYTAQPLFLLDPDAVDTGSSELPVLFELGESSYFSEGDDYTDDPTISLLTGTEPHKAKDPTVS
Assay: enhancement of HSF1-driven luciferase signal – cell-based, NIH3T3, luminescence, dose retest, confirmation (AID 435004);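 further: stress induced by proteasome inhibitor MG132 added 30 min after compound; luciferase reporter driven by HSF1 response element in NIH3T3 cells; actives raise luminescence as potentiators of the MG132 stress response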
Type: functional
Activity calls are given as the source filed them.
Outcome field: choose from 1.0 for active, 0.0 for inactive

Incoming: Entry CCOC(=O)N1CCN(C(=O)c2cc(-c3ccc(OCC)cc3)nc3ccccc23)CC1 : call = ?
Outgoing: 1.0

Incoming: How about Cc1c(C(=O)N(Cc2ccncc2)CC2CCCO2)oc2c(F)cccc12 (stereo not drawn) ?
Outgoing: 0.0

Incoming: Again, but for Cc1cccc(C2c3[nH]c4ccccc4c3CCN2Cc2cnn(-c3ccc(F)cc3)c2)n1 (stereo not drawn)
Outgoing: 0.0

Incoming: Next compound up: CN(Cc1ccccc1)C(=O)CCC1CCN(C(=O)CC2=CCCCC2)CC1
Outgoing: 0.0

Incoming: Now consider O=C(NC1CCCCC1)C1CCCN1S(=O)(=O)c1cccc2nsnc12 (stereo not drawn) .
Outgoing: 0.0

Incoming: Ok, now CCN(CC)CCCn1c(=S)[nH]c2ncccc2c1=O
Outgoing: 0.0

Incoming: Here is the next compound: CCN(CC)S(=O)(=O)c1ccc(OC)c(NC(=O)c2cc3c(=O)n4ccccc4nc3s2)c1
Outgoing: 0.0

Incoming: Another compound to look at: Cc1ccc2nc(-c3ccc4c(c3)OCCO4)cc(C(=O)O)c2c1
Outgoing: 0.0

Incoming: Another compound: Cc1ccc(S/C=C\C(=O)c2ccccc2)cc1
Outgoing: 1.0

Incoming: And the next one, CCCCc1ccc(-c2ccc(Br)cc2)nc1 ?
Outgoing: 0.0

Incoming: Then CC(Nc1cc(N2CCNCC2)ccc1[N+](=O)[O-])c1ccccc1 (stereo not drawn) ?
Outgoing: 0.0

Incoming: Repeat for the following compound: Cc1ccc(O)c(C(=O)c2cnc3c(c2)CN(CCC(C)C)C(=O)N3)c1
Outgoing: 0.0

###

Biological target: Steroidogenic factor 1 (Homo sapiens)
Sequence (Q13285 whole entry): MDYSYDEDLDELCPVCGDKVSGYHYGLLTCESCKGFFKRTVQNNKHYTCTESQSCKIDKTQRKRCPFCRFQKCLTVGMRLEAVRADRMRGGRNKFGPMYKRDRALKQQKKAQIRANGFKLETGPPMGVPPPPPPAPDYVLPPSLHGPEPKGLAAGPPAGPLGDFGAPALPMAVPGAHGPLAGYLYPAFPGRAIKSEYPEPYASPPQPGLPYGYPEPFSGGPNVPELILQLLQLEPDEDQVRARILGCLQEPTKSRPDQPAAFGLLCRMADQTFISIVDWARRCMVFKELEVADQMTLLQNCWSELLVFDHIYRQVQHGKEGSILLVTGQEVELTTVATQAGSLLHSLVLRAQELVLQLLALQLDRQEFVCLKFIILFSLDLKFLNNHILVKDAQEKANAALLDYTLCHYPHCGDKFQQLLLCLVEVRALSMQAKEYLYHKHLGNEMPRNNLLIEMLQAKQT
Assay: Counterscreen for inverse agonists of the liver receptor homolog-1 (LRH-1; NR5A2): Luminescence-based cell-based high throughput dose response assay to identify inverse agonists of the Steroidogenic Factor 1 Nuclear Receptor (SF1; NR5A1).
Format: functional
Active and inactive are the calls of the source.
A correct response names exactly one class from True (active), False (inactive)

Incoming: Status in this test for CCCc1cc(=O)oc2c(C)c(OCC(=O)NC3CC(C)(C)NC(C)(C)C3)ccc12 ?
Outgoing: True

Incoming: Query CC1SC(C)C(=O)N(CC(=O)Nc2ccc3c(c2)OCO3)C1=O (centres undefined) next
Outgoing: False

Incoming: Now give it for Cc1ccc(NC(=O)COC(=O)C(NS(=O)(=O)c2ccc(Cl)cc2)C(C)O)c(Br)c1 (centres undefined) too.
Outgoing: True

Incoming: Let us now turn to Cc1cc(C)c2sc(NC(=O)c3ccc([N+](=O)[O-])o3)nc2c1
Outgoing: True

###

Target: Ubiquitin-conjugating enzyme E2 N (Homo sapiens, UniProt P61088);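 further: Dose-response confirmation in a TR-FRET assay detecting UBC13-driven polyubiquitin chain formation, inhibition measured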
Sequence (P61088 whole entry): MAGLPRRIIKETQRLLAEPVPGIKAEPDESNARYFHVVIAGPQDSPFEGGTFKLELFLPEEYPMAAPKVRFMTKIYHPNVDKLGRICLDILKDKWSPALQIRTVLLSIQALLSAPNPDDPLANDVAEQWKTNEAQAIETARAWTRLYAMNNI
Format: functional
Structures can show the parent of a compound that is named as a salt. Calls of active or inactive are those of the source.
Pick one: label 1 = active, label 0 = inactive

Incoming: Which outcome did this test record for the compound CC(C)Cn1cc(C(=O)NCCCN2CCC(C)CC2)c2c3ccccc3n(C)c2c1=O ?
Outgoing: label 0

Incoming: Input CCN=C(S)NNC(=O)c1ccccn1
Outgoing: label 0

Incoming: Proceed to CCCCN(CCCC)CCC(O)c1cc2c(Cl)cc(Cl)cc2c2cc(C(F)(F)F)ccc12 (stereo unspecified) [HALOFANTRINE HYDROCHLORIDE]
Outgoing: label 0

Incoming: Proceed to Cc1ccc(C(=O)NC(C)c2ccc(-n3ccnc3)cc2)cc1S(=O)(=O)N1CCOCC1 (stereo unspecified)
Outgoing: label 1

Incoming: // repeat for NCCCC[C@@H]1NC(=O)c2cc([N+](=O)[O-])cc(F)c2NCCCC[C@@H](C(N)=O)NC(=O)CNC1=O and report
Outgoing: label 0

Incoming: Entry to check: CCC[C@H](CN[C@@H](CNC)[C@H](C)CC)NCCc1cc(C(F)(F)F)cc(C(F)(F)F)c1
Outgoing: label 0

###

Biological target: Type-1 angiotensin II receptor (Homo sapiens)
Sequence (P30556 whole entry): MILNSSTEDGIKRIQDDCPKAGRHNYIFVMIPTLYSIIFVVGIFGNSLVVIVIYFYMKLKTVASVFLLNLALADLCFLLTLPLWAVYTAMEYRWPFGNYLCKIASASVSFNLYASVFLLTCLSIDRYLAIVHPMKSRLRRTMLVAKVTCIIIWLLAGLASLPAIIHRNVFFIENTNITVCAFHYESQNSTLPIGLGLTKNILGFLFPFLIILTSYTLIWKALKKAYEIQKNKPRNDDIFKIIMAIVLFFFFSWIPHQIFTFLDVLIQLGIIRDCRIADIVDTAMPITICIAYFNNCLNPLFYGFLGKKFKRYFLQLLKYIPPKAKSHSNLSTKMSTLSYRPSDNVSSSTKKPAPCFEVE
Test: antagonism of angiotensin II type 1 receptor – cell-based, uHTS hits, selectivity assay for APJ receptor antagonist project, dose response (AID 463214);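 further: antagonist potency against angiotensin II stimulated AT1 response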
Assay type: functional
The source made the active and inactive calls.
Provide the recorded IC50 for the entries that follow.

Incoming: Field request: IC50 | item: Cc1ccc(S(=O)(=O)N/N=C/c2ccc3nccnc3c2)cc1
Outgoing: > 40 µM (not active)

Incoming: Moving on to the next compound: O=C(Cn1nnc2ccccc21)OCC(=O)c1ccc(Cl)c(Cl)c1
Outgoing: 13.3 µM (active)

Incoming: Entry CCS(=O)(=O)c1ncc(Cl)c(C(=O)Nc2ccc(S(=O)(=O)N3CCC(C)CC3)cc2)n1 please
Outgoing: 6.11 µM (active)

Incoming: Quick one: COc1ccc(S(=O)(=O)NNc2nc(C)cc(C)n2)cc1[N+](=O)[O-]
Outgoing: 36.7 µM (not active)

Incoming: Cc1cccc(CSc2cccc3cccnc23)c1 ?
Outgoing: 10.1 µM (active)
